All figures here come from ChEMBL document CHEMBL1155947.

# Experiment: Total clearance in rat at 0.32 mg/kg, iv
# Assay type: ADME, organism-based
# Parameters: dose 0.32 mg/kg, route intravenous
# Experimental Context: in vivo
Property Measured: clearance (mL/min/kg)
Please give a number only; it is taken to be in mL/min/kg.

Return reported clearance; argument: "O=C(O)COc1ccc2c(c1)C[C@@H](NC[C@H](O)c1cccc(Cl)c1)CC2" 52.6

* * *

Reported Ratio EC50 is given for each of the following compounds.
# Organism: Homo sapiens
# Experiment: Ratio of EC50 for human cloned beta-1 adrenergic receptor to EC50 for human cloned beta3 adrenergic receptor
API doc: respond with a numeric literal and nothing else, no unit.

Consider the reported Ratio EC50 for these compounds:
| Compound Structure | Ratio EC50 |
| --- | --- |
| Cc1cc(-c2ccc3c(c2)C[C@@H](NC[C@H](O)c2ccc(Cl)cc2)CC3)ccc1C(=O)O | 458 |
| O=C(O)c1cccc(Oc2ccc3c(c2)C[C@@H](NC[C@H](O)c2ccc(Cl)cc2)CC3)c1 | 69 |
| O=C(O)c1cc(NC2CCCCC2)cc(Oc2ccc3c(c2)C[C@@H](NC[C@H](O)c2cccc(Cl)c2)CC3)c1 | 88 |

Now examine the next entry.
Would you kindly share the measured Ratio EC50 for "CC(=O)Nc1cc(Oc2ccc3c(c2)C[C@@H](NC[C@H](O)c2cccc(Cl)c2)CC3)cc(C(=O)O)c1" ? 277

* * *

Measured EC50, listed per entry.
# Tested Target: Beta-3 adrenergic receptor (Homo sapiens)
# Experiment: Agonist activity at human cloned beta3 adrenergic receptor expressed in CHO cells assessed as cAMP accumulation
# number only, unit nM dropped from output

Look over these answered cases.
| Compound Structure | Unit Of Measurement | EC50 |
| --- | --- | --- |
| O=C(O)c1ccc(Oc2ccc3c(c2)C[C@@H](NC[C@H](O)c2cccc(Cl)c2)CC3)s1 | nM | 5.7 |
| Cc1ccc(Oc2ccc3c(c2)C[C@@H](NC[C@H](O)c2cccc(Cl)c2)CC3)cc1C(=O)O | nM | 9 |
| O=C(O)c1ccc(-c2ccc3c(c2)C[C@@H](NC[C@H](O)c2ccc(Cl)cc2)CC3)cc1F | nM | 0.81 |
| O=C(O)c1ccc(-c2ccc3c(c2)C[C@@H](NC[C@H](O)c2ccc(Cl)cc2)CC3)cc1 | nM | 0.38 |
| Cc1ccc([C@@H](O)CN[C@H]2CCc3ccc(-c4ccc(C(=O)O)cc4)cc3C2)cc1 | nM | 0.79 |
| O=C(O)c1cc(Oc2ccc3c(c2)C[C@@H](NC[C@H](O)c2cccc(Cl)c2)CC3)ccc1Cl | nM | 16 |
| O=C(O)c1cccc(-c2ccc3c(c2)C[C@@H](NC[C@H](O)c2cccc(Cl)c2)CC3)c1 | nM | 29 |
| O=C(O)COc1ccc(Oc2ccc3c(c2)C[C@@H](NC[C@H](O)c2cccc(Cl)c2)CC3)cc1 | nM | 24 |

Consider the additional compound presented here.
Lab note: need EC50 with Beta-3 adrenergic receptor (Homo sapiens) for entry "Cc1cc(C(=O)O)ccc1-c1ccc2c(c1)C[C@@H](NC[C@H](O)c1ccc(Cl)cc1)CC2" , please look it up. 2

* * *

# Experiment: Total clearance in dog at 0.1 mg/kg, iv by cassette assay
# Assay type: ADME, organism-based, Canis lupus familiaris
# Set-up: dose 0.1 mg/kg, route intravenous
# Experimental Context: in vivo
Below: a set of entries, each annotated with reported clearance.
Quick note: give the figure in mL/min/kg, leave out the unit.

Consider the following illustrative entries.
| Compound Structure | Unit Of Measurement | Reported Measurement |
| --- | --- | --- |
| CN(C)c1cc(Oc2ccc3c(c2)C[C@@H](NC[C@H](O)c2cccc(Cl)c2)CC3)cc(C(=O)O)c1 | mL/min/kg | 2.38 |
| COc1ccc(Oc2ccc3c(c2)C[C@@H](NC[C@H](O)c2ccc(Cl)cc2)CC3)cc1C(=O)O | mL/min/kg | 1.4 |
| O=C(O)c1ccc(-c2ccc3c(c2)C[C@@H](NC[C@H](O)c2ccc(Cl)cc2)CC3)cc1 | mL/min/kg | 1.7 |

Continue with the next compound.
For "COc1ccc(Oc2ccc3c(c2)C[C@@H](NC[C@H](O)c2ccc(Cl)nc2)CC3)cc1C(=O)O" , what is its reported clearance? 3.1

* * *

# Experiment: Total clearance in rat at 0.50 mg/kg, iv by cassette assay
# Format: ADME, organism-based
# Parameters: dose 0.5 mg/kg, route intravenous
# Experimental Context: in vivo, 0.5 mg/kg
Quick list: clearance per entry.
Give the value, in units of mL/min/kg, as a plain number.

| Compound Structure | Property Measured | Reported Measurement |
| --- | --- | --- |
| COc1ccc(Oc2ccc3c(c2)C[C@@H](NC[C@H](O)c2ccc(Cl)cc2)CC3)cc1C(=O)O | clearance | 2 |

// lookup clearance for "O=C(O)c1ccc(-c2ccc3c(c2)C[C@@H](NC[C@H](O)c2ccc(Cl)cc2)CC3)cc1" 11.4

* * *

# Experiment: Cmax in dog at 0.21 mg/kg, po by cassette assay
# Assay type: ADME, organism-based, Canis lupus familiaris
# Parameters: dose 0.21 mg/kg, route oral
# Experimental Context: in vivo
Property Measured: Cmax (ng/mL)
Please reply with the bare figure in ng/mL and do not write the unit itself.

Would you mind telling me what Cmax value was observed for "COc1ccc(Oc2ccc3c(c2)C[C@@H](NC[C@H](O)c2ccc(Cl)cc2)CC3)cc1C(=O)O" ? 103

* * *

# Experiment: Oral bioavailability in rat at 0.51 mg/kg by cassette assay
# Format: ADME, organism-based
# Experimental Context: in vivo
Property Measured: bioavailability (%)
Use % as the unit, but write only the number.

Report bioavailability for "COc1ccc(Oc2ccc3c(c2)C[C@@H](NC[C@H](O)c2ccc(Cl)nc2)CC3)cc1C(=O)O" please. 27.3

* * *

# Tested Target: Beta-3 adrenergic receptor (Homo sapiens, UniProt P13945)
# Sequence (P13945 whole entry): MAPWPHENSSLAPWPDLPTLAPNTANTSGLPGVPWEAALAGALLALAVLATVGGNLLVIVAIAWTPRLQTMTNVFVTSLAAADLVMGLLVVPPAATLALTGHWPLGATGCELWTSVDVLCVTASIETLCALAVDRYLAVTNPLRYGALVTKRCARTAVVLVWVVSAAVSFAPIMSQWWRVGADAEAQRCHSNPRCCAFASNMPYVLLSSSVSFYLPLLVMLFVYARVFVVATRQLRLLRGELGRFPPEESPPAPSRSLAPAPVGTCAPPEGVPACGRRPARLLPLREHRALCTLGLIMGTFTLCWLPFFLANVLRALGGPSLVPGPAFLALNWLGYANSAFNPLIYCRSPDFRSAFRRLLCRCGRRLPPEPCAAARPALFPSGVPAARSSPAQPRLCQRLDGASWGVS
# Experiment: Agonist activity at human cloned beta3 adrenergic receptor expressed in CHO cells assessed as cAMP accumulation
EC50 strictly under 2 nM means label 1; at 2 nM or over means label 0.

| Compound Structure | Group Label |
| --- | --- |
| CCCNc1cc(Oc2ccc3c(c2)C[C@@H](NC[C@H](O)c2cccc(Cl)c2)CC3)cc(C(=O)O)c1 | label 1 |
| O=C(O)c1cccc(Oc2ccc3c(c2)C[C@@H](NC[C@H](O)c2cccc(Cl)c2)CCC3)c1 | label 0 |
| O=C(O)c1cccc(Oc2ccc3c(c2)C[C@@H](NC[C@H](O)c2cccnc2)CC3)c1 | label 0 |
| Cc1cc(-c2ccc3c(c2)C[C@@H](NC[C@H](O)c2ccc(Cl)cc2)CC3)ccc1C(=O)O | label 1 |
| O=C(O)c1ccc(-c2ccc3c(c2)C[C@@H](NC[C@H](O)c2cccc(Cl)c2)CCC3)cc1 | label 0 |
| O=C(O)c1cccc(Oc2ccc3c(c2)C[C@@H](NC[C@H](O)c2ccc(Cl)cc2)CC3)c1 | label 0 |
| O=C(O)c1ccc(-c2ccc3c(c2)C[C@@H](NC[C@H](O)c2cccc(Cl)c2)CC3)s1 | label 0 |

Could you now consider this next molecule?
is_below(EC50, 2 nM) for "CC(=O)Nc1cc(Oc2ccc3c(c2)C[C@@H](NC[C@H](O)c2cccc(Cl)c2)CC3)cc(C(=O)O)c1" ? label 1

* * *

# Experiment: Terminal half life in monkey at 0.32 mg/kg, iv by cassette assay
# Type: ADME, organism-based, Macaca mulatta
# Design: dose 0.32 mg/kg, route intravenous
# Experimental Context: rhesus monkey, in vivo
Property Measured: half-life (h)
// units = h; emit number, no label

Example entries begin here.
| Compound Structure | Reported Measurement |
| --- | --- |
| O=C(O)c1ccc(-c2ccc3c(c2)C[C@@H](NC[C@H](O)c2ccc(Cl)cc2)CC3)cc1 | 7.7 |
| COc1ccc(Oc2ccc3c(c2)C[C@@H](NC[C@H](O)c2ccc(Cl)nc2)CC3)cc1C(=O)O | 8.2 |

--- query ---
What does the data say about its half-life? Entry: "COc1ccc(Oc2ccc3c(c2)C[C@@H](NC[C@H](O)c2ccc(Cl)cc2)CC3)cc1C(=O)O" 6.7

* * *

Here, each record is paired with measured EC50 data.
# Tested Target: Beta-1 adrenergic receptor (Homo sapiens)
# Sequence (P08588 whole entry): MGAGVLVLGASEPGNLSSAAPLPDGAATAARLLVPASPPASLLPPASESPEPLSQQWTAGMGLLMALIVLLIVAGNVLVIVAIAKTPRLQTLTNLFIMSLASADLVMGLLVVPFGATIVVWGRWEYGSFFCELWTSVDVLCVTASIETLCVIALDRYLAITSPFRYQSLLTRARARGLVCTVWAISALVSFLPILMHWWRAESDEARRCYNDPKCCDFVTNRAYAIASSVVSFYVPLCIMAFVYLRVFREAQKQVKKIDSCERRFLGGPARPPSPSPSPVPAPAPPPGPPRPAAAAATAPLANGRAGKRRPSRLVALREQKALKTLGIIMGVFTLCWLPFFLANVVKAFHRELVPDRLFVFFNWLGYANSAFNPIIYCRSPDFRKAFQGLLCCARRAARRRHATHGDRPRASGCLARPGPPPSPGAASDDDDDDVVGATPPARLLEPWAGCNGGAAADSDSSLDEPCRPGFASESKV

Use these answered entries as a reference point.
| Compound Structure | Reported Measurement |
| --- | --- |
| COc1cc(-c2ccc3c(c2)C[C@@H](NC[C@H](O)c2ccc(Cl)cc2)CC3)ccc1C(=O)O | > 1 µM |
| CN(C)c1cc(Oc2ccc3c(c2)C[C@@H](NC[C@H](O)c2cccc(Cl)c2)CC3)cc(C(=O)O)c1 | > 1 µM |
| O=C(O)COc1cccc(-c2ccc3c(c2)C[C@@H](NC[C@H](O)c2cccc(Cl)c2)CC3)c1 | > 0.1 µM |

Missing value: EC50, Beta-1 adrenergic receptor (Homo sapiens), entry "Nc1cc(Oc2ccc3c(c2)C[C@@H](NC[C@H](O)c2cccc(Cl)c2)CC3)cc(C(=O)O)c1" . Fill in? 0.48 µM

Also "O=C(O)COc1ccc(Oc2ccc3c(c2)C[C@@H](NC[C@H](O)c2cccc(Cl)c2)CC3)cc1" ? > 0.1 µM

Please do the same for "CN(C)c1cc(Oc2ccc3c(c2)C[C@@H](NC[C@H](O)c2ccc(Cl)nc2)CC3)cc(C(=O)O)c1" as well. 0.27 µM

And what about the compound "Cc1ccc(Oc2ccc3c(c2)C[C@@H](NC[C@H](O)c2cccc(Cl)c2)CC3)cc1C(=O)O" ? > 1 µM

Input "O=C(O)c1ccc(-c2ccc3c(c2)C[C@@H](NC[C@H](O)c2cccc(Cl)c2)CC3)nc1" 0.49 µM
